Values compiled from patent US20260042731A1.

I'd appreciate it if you could supply pest or weed control at 280 g/ha values for the items below.
- System: Ambrosia artemisiifolia (AMBEL), common ragweed
- experimentDescription: Postemergence herbicide evaluation, growth of Ambrosia artemisiifolia (AMBEL)
- Format: in vivo
- measurementParameters: Ambrosia artemisiifolia, post-emergence, 336 h, 280 g ae/ha, 14 DAA; read-out: AVE. AMBEL, percent reduction in plant size relative to the untreated control
Give bare numbers, in %.

List pest or weed control at 280 g/ha for every entry below, keeping the order given.
1. O=C(COc1ccc(Cl)cc1Cl)O/N=C/c1ccccc1
2. O=C(COc1ccc(Cl)cc1Cl)O/N=C/c1ccccn1
3. COc1ncc(OC(=O)COc2ccc(Cl)cc2Cl)cn1
4. O=C(COc1ccc(Cl)cc1Cl)Oc1ncc(Cl)cn1
5. O=C(COc1ccc(Cl)cc1Cl)O/N=C/c1cccnc1

1: 92; 2: 72.5; 3: 70; 4: 89.5; 5: 75

---

I'd appreciate it if you could supply pest or weed control at 560 g/ha values for the items below.
- Test system: Abutilon theophrasti (ABUTH), velvetleaf
- experimentDescription: Postemergence herbicide evaluation, growth of Abutilon theophrasti (ABUTH)
- Type: in vivo
- measurementParameters: Abutilon theophrasti, post-emergence, 336 h, 560 g ae/ha, 14 DAA, percent reduction in plant size vs untreated control; read-out: AVE. ABUTH
Answers are plain numbers, in %.

List pest or weed control at 560 g/ha for every entry below, keeping the order given.
1. Cc1nc2ccccc2n1C(=O)COc1ccc(Cl)cc1Cl
2. O=C(COc1ccc(Cl)cc1Cl)ONC(=O)C1CCCC1
3. O=C(COc1ccc(Cl)cc1Cl)Oc1cccnc1
4. O=C(COc1ccc(Cl)cc1Cl)NOCCc1ccccc1
5. O=C(COc1ccc(Cl)cc1Cl)Nc1ccccn1
6. C/C(=N\OC(=O)COc1ccc(Cl)cc1Cl)C(=O)c1ccccc1

1: 85; 2: 100; 3: 98; 4: 96.5; 5: 97.5; 6: 98.5

---

I'd appreciate it if you could supply pest or weed control at 560 g/ha values for the items below.
- System: Amaranthus rudis (AMATA), tall water hemp
- experimentDescription: Postemergence herbicide evaluation, growth of Amaranthus rudis (AMATA)
- Type: in vivo
- measurementParameters: Amaranthus tuberculatus, post-emergence, 336 h, 560 g ae/ha, 14 DAA; read-out: Ave. AMATA, percent reduction in plant size relative to the untreated control
Answers are plain numbers, in %.

Known results for compounds:
inputSmiles	pest or weed control at 560 g/ha (%)
O=C(COc1ccc(Cl)cc1Cl)O/N=C/c1cccnc1	97
O=C(COc1ccc(Cl)cc1Cl)Oc1ncc(Cl)cn1	96
CC(C)ONC(=O)COc1ccc(Cl)cc1Cl	90
O=C(COc1ccc(Cl)cc1Cl)O/N=C/c1ccncc1	93.5

With those in mind, consider the next compound.
Lab note: N/C(=N\OC(=O)COc1ccc(Cl)cc1Cl)c1ccccc1 gave pest or weed control at 560 g/ha of 90

---

- System: Amaranthus rudis (AMATA), tall water hemp
- experimentDescription: Postemergence herbicide evaluation, growth of Amaranthus rudis (AMATA)
- Type: in vivo
- measurementParameters: Amaranthus tuberculatus, post-emergence, 504 h, 280 g ae/ha, 21 DAA; read-out: Ave. AMATA, percent reduction in plant size relative to the untreated control
Class (required): determined from pest or weed control at 280 g/ha; valid ranges are interval 1 (below 70%), interval 2 (70% to below 80%), interval 3 (80% or more)

Some solved cases for reference:
compound	measurementTarget	discreteLabel
C/C(=N\OC(=O)COc1ccc(Cl)cc1Cl)c1cccnc1 [Compound A26]	Amaranthus rudis (AMATA), tall water hemp	interval 1
C[N+](C)(C)CCOC(=O)COc1ccc(Cl)cc1Cl.[Cl-] [Compound E3]	Amaranthus rudis (AMATA), tall water hemp	interval 2

Lab note: sort CC(C)CONC(=O)COc1ccc(Cl)cc1Cl [Compound D22] into the matching pest or weed control at 280 g/ha band.
interval 3
